# System: Trypanosoma brucei brucei
# methodSummary: Trypanocidal activity against Trypanosoma brucei brucei assessed as reduction in intracellular ATP production incubated for 72 hrs by CellTiter-Glo luminescent cell viability assay
# Type: functional, organism-based
# Lookup of reported IC50 keyed by entry
Number in µM, nothing else.

Illustrative cases are given below, each with its answer.
CC(=O)Oc1ccccc1-c1cnc(-c2cccc(OC(C)=O)c2OC(C)=O)o1 4.6
CC(=O)Oc1ccc(OC(C)=O)c(-c2cnc(-c3cc(OC(C)=O)ccc3OC(C)=O)o2)c1 35.2
Oc1ccccc1-c1nnc(-c2cccc(O)c2O)o1 1.9

Turning to the following compound.
// output IC50; input COc1ccccc1-c1nnc(-c2cccc(OC)c2OC)o1 ; system Trypanosoma brucei brucei
13.3

###

# Test system: Trypanosoma brucei rhodesiense
# methodSummary: Trypanocidal activity against Trypanosoma brucei rhodesiense assessed as reduction in intracellular ATP production incubated for 72 hrs by CellTiter-Glo luminescent cell viability assay
# Format: functional, organism-based
Parameter: pIC50. Scope: all listed entries.
Reminder that pIC50 is minus the log10 of a molar concentration.

The cases that follow already have their pIC50 on record.
COc1ccc(-c2cnc(-c3ccc(OC)c(OC)c3OC)o2)c(OC)c1OC 4.50
COc1cccc(-c2ncc(-c3ccccc3N)o2)c1OC 4.21
Cc1ccc(C(=O)Nc2ccc(S(=O)(=O)O)c3cc(S(=O)(=O)O)cc(S(=O)(=O)O)c23)cc1NC(=O)c1cccc(NC(=O)Nc2cccc(C(=O)Nc3cc(C(=O)Nc4ccc(S(=O)(=O)O)c5cc(S(=O)(=O)O)cc(S(=O)(=O)O)c45)ccc3C)c2)c1 7.12
COc1cccc(-c2ncc(-c3ccc4ccccc4c3)o2)c1OC 4.14

Name the recorded pIC50 of the item COc1cccc(-c2ncc(-c3ccccc3)o2)c1OC in your answer.
4.08

// Input: COc1cccc(-c2ncc(-c3ccccc3[N+](=O)[O-])o2)c1OC . Output its pIC50 only.
4.25

Give the reported value of pIC50 for this record: COc1ccc(-c2ncc(-c3ccccc3OC)o2)c(OC)c1
4.23

###

# System: Trypanosoma brucei brucei
# methodSummary: Trypanocidal activity against Trypanosoma brucei brucei assessed as reduction in intracellular ATP production incubated for 72 hrs by CellTiter-Glo luminescent cell viability assay
# Type: functional, organism-based
endpointName: pIC50
# pIC50: negative log10 of molar concentration; output just the value

Below, 2 compounds whose answers are already recorded.
compound	resultValue
COc1cccc(-c2cnc(-c3ccc(OC)c(OC)c3OC)o2)c1OC	4.19
Oc1ccccc1-c1cnc(-c2cccc(O)c2O)o1	5.04

State, in one line, measured pIC50 of COc1cccc(-c2ncc(-c3ccccc3[N+](=O)[O-])o2)c1OC
4.30

Find the measured pIC50 of COCOc1ccccc1-c1cnc(-c2cccc(OC)c2OC)o1 and report it.
4.67

Return the recorded pIC50 value; entry: CCCOc1ccccc1-c1cnc(-c2cccc(OC)c2OC)o1
4.69

Give the reported pIC50 for this compound. COc1cccc(-c2ncc(-c3ccc4ccccc4c3)o2)c1OC
4.15

Using the record for CC(=O)Oc1ccc(OC(C)=O)c(-c2cnc(-c3ccccc3)o2)c1 , state its measured pIC50.
4.78

Respond only with pIC50 recorded for COc1ccc(-c2ncc(-c3ccccc3OC)o2)c(OC)c1
4.12

For the compound COc1ccc(-c2cnc(-c3ccc(OC)c(OC)c3OC)o2)c(OC)c1OC , give its measured pIC50 value.
4.42

Return reported pIC50. Input compound: COc1cccc(-c2cnc(-c3cccc(OC)c3OC)o2)c1
4.12

Identify measured pIC50 corresponding to COc1cccc(-c2ncc(-c3ccccc3N(C)C)o2)c1OC
4.69

Dear colleague, please send me the reported pIC50 for Oc1ccc(O)c(-c2ncc(-c3ccccc3O)o2)c1 when you can.
4.59

Supply reported pIC50 belonging to this compound: COc1ccc(-c2cnc(-c3cccc(OC)c3OC)o2)cc1
4.12

Using the record for COc1cccc(-c2ncc(-c3ccccc3OCc3ccccc3)o2)c1OC , state its measured pIC50.
4.81

Where do the numbers come from? From ChEMBL document CHEMBL4811303.
